Data credit: patent US20090155209A1

assay: Single ascending dose study, fasted and fed: safety and non-compartmental plasma PK; type: in vivo, healthy volunteers (human); details: human, plasma, oral, 200 mg, median; single 200 mg dose, fasting state; plasma; N=8; read-out: Cmax
assayReadout: Cmax (ng/mL)
A number alone suffices; assume ng/mL.

Reported Cmax of CC(C)(C)OC(=O)N[C@H]1CCCCC/C=C\[C@@H]2C[C@@]2(C(=O)NS(=O)(=O)C2CC2)NC(=O)[C@@H]2C[C@@H](OC(=O)N3Cc4cccc(F)c4C3)CN2C1=O [ITMN-191] : 30.2

====

assay: Single ascending dose study, fasted and fed: safety and non-compartmental plasma PK; type: in vivo, healthy volunteers (human); details: human, plasma, oral, 100 mg, median; single 100 mg dose, fasting state; plasma; N=8; read-out: T1/2 (converted)
assayReadout: half-life
Report field: quantity (unit follows the number).

For CC(C)(C)OC(=O)N[C@H]1CCCCC/C=C\[C@@H]2C[C@@]2(C(=O)NS(=O)(=O)C2CC2)NC(=O)[C@@H]2C[C@@H](OC(=O)N3Cc4cccc(F)c4C3)CN2C1=O [ITMN-191] the compound record lists half-life as 1.78 h

====

assay: Single ascending dose study, fasted and fed: safety and non-compartmental plasma PK; format: in vivo, healthy volunteers (human); conditions: human, plasma, oral, 200 mg, median; single 200 mg dose, fasting state; plasma; N=8; read-out: AUC0-inf
assayReadout: AUC0-inf (ng·h/mL)
// note: answer is a bare numeric in ng·h/mL

Input `CC(C)(C)OC(=O)N[C@H]1CCCCC/C=C\[C@@H]2C[C@@]2(C(=O)NS(=O)(=O)C2CC2)NC(=O)[C@@H]2C[C@@H](OC(=O)N3Cc4cccc(F)c4C3)CN2C1=O` . Output AUC0-inf: 36.8

====

test: Single ascending dose study, fasted and fed: safety and non-compartmental plasma PK; format: in vivo, healthy volunteers (human); details: human, plasma, oral, 1600 mg, Geometric Mean of 10 subjects; single 1600 mg dose, Fasted; read-out: AUC0-inf
assayReadout: AUC0-inf (ng·h/mL)
Report the figure in ng·h/mL without appending any unit label.

// field: AUC0-inf; key: `CC(C)(C)OC(=O)N[C@H]1CCCCC/C=C\[C@@H]2C[C@@]2(C(=O)NS(=O)(=O)C2CC2)NC(=O)[C@@H]2C[C@@H](OC(=O)N3Cc4cccc(F)c4C3)CN2C1=O` ; value = 667

====

# IC50 measurements, system: NS3-NS4 (Hepatitis C virus genotype 1a, UniProt P27958)
# Sequence (P27958 1027-1657): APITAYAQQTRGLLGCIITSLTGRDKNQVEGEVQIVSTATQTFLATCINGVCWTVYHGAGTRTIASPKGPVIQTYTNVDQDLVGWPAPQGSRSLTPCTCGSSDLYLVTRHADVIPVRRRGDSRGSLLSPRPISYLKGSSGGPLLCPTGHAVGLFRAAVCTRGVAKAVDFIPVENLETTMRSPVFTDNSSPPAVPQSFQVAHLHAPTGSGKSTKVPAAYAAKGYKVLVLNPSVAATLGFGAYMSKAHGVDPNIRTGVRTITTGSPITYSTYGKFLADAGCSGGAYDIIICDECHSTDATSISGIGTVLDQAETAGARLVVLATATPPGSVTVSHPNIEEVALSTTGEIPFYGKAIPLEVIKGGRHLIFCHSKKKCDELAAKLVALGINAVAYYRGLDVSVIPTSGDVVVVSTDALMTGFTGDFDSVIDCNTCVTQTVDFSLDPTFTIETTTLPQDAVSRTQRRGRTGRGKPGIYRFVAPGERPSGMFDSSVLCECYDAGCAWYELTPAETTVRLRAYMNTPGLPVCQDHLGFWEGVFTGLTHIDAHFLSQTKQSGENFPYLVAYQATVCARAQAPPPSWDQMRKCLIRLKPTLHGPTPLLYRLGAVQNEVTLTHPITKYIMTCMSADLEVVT
# Sequence (P27958 1658-1711): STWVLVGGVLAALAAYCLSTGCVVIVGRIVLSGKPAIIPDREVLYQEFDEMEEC

// below: answered compounds
compound="O=C(N[C@H]1CCCCC/C=C\\[C@@H]2C[C@@]2(C(=O)NS(=O)(=O)c2ccc(Cl)cc2)NC(=O)[C@@H]2C[C@@H](OC(=O)N3Cc4cccc(Cl)c4C3)CN2C1=O)OC1CCOCC1 [Compound 335]" recordedmeasurement="< 100 nM"
compound="CC(C)(C)OC(=O)N[C@H]1CCCCC/C=C\\[C@@H]2C[C@@]2(C(=O)NS(=O)(=O)C2(C)CC2)NC(=O)[C@@H]2C[C@@H](OC(=O)N3Cc4cccc(F)c4C3)CN2C1=O [Compound 444]" recordedmeasurement="< 100 nM"

Measured on NS3-NS4 (Hepatitis C virus genotype 1a, UniProt P27958), CC(C)(C)OC(=O)N[C@H]1CCCCCCC[C@@H]2C[C@@]2(C(=O)NS(=O)(=O)c2ccc(Cl)s2)NC(=O)[C@@H]2C[C@@H](OC(=O)N3Cc4cccc(F)c4C3)CN2C1=O [Compound 641] has a documented IC50 of < 100 nM

====

assay: Single ascending dose study, fasted and fed: safety and non-compartmental plasma PK; assay type: in vivo, healthy volunteers (human); conditions: human, plasma, oral, 1600 mg, Median of 10 subjects; single 1600 mg dose, Fed; read-out: Cmax
assayReadout: Cmax (ng/mL)
Write the answer as a number in ng/mL, unit excluded.

For record `CC(C)(C)OC(=O)N[C@H]1CCCCC/C=C\[C@@H]2C[C@@]2(C(=O)NS(=O)(=O)C2CC2)NC(=O)[C@@H]2C[C@@H](OC(=O)N3Cc4cccc(F)c4C3)CN2C1=O` the listed Cmax is 449

====

test: Single ascending dose study, fasted and fed: safety and non-compartmental plasma PK; type: in vivo, healthy volunteers (human); conditions: human, plasma, oral, 1600 mg, Geometric Mean of 10 subjects; single 1600 mg dose, Fed; read-out: Cmax
assayReadout: Cmax (µg/mL)
Form entry: value (µg/mL) — number only.

The measured Cmax associated with `CC(C)(C)OC(=O)N[C@H]1CCCCC/C=C\[C@@H]2C[C@@]2(C(=O)NS(=O)(=O)C2CC2)NC(=O)[C@@H]2C[C@@H](OC(=O)N3Cc4cccc(F)c4C3)CN2C1=O` reads 0.422

====

assay: Single ascending dose study, fasted and fed: safety and non-compartmental plasma PK; format: in vivo, healthy volunteers (human); conditions: human, plasma, oral, 800 mg, 800 mg cohort, fasting, single dose; read-out: median Cmax
assayReadout: Cmax (ng/mL)
The response must be a number in ng/mL with no trailing unit.

Data point: `CC(C)(C)OC(=O)N[C@H]1CCCCC/C=C\[C@@H]2C[C@@]2(C(=O)NS(=O)(=O)C2CC2)NC(=O)[C@@H]2C[C@@H](OC(=O)N3Cc4cccc(F)c4C3)CN2C1=O` ; Cmax = 216

====

molecular target: NS3-NS4 (Hepatitis C virus genotype 1a, UniProt P27958); assay: cell-based; settings: EC50, NS3-NS4 activity
assayReadout: EC50

Worked examples follow.
compound="O=C1N[C@]2(C(=O)NS(=O)(=O)C3CC3)C[C@H]2/C=C\\CCCCC[C@H](Nc2nc3c(s2)CCC3)C(=O)N2C[C@H](OC(=O)N3Cc4cccc(F)c4C3)C[C@@H]12 [Compound 206]" experimentalsystem="NS3-NS4 (Hepatitis C virus genotype 1a, UniProt P27958)" assayreadout=EC50 recordedmeasurement="0.1 to 1 µM"
compound="O=C(N[C@H]1CCCCC/C=C\\[C@@H]2C[C@@]2(C(=O)NS(=O)(=O)C2CC2)NC(=O)[C@@H]2C[C@@H](OC(=O)N3Cc4cccc(F)c4C3)CN2C1=O)OCC1CCC1 [Compound 430]" experimentalsystem="NS3-NS4 (Hepatitis C virus genotype 1a, UniProt P27958)" assayreadout=EC50 recordedmeasurement="< 0.1 µM"
compound="Cc1ccc(S(=O)(=O)NC(=O)[C@@]23C[C@H]2/C=C\\CCCCC[C@H](NC(=O)OC(C)(C)C)C(=O)N2C[C@H](OC(=O)N4Cc5cccc(F)c5C4)C[C@H]2C(=O)N3)cc1Cl [Compound 312]" experimentalsystem="NS3-NS4 (Hepatitis C virus genotype 1a, UniProt P27958)" assayreadout=EC50 recordedmeasurement="0.1 to 1 µM"
compound="CC(C)(C)OC(=O)N[C@H]1CCCCCCC[C@@H]2C[C@@]2(C(=O)NOc2ccc(F)cc2)NC(=O)[C@@H]2C[C@@H](OC(=O)N3Cc4cccc(F)c4C3)CN2C1=O [Compound 811]" experimentalsystem="NS3-NS4 (Hepatitis C virus genotype 1a, UniProt P27958)" assayreadout=EC50 recordedmeasurement="1 to 10 µM"

Next compound, please.
Summary: O=C(N[C@H]1CCCCC/C=C\[C@@H]2C[C@@]2(C(=O)NS(=O)(=O)C2CC2)NC(=O)[C@@H]2C[C@@H](OC(=O)N3Cc4cccc(F)c4C3)CN2C1=O)OC1(C2CC2)CC1 [Compound 446] , NS3-NS4 (Hepatitis C virus genotype 1a, UniProt P27958), EC50 = < 0.1 µM

====

molecular target: NS3-NS4 (Hepatitis C virus genotype 1a, UniProt P27958); experiment: cell-based; conditions: EC50, NS3-NS4 activity
pEC50: −log10 of the molar value.
assayReadout: pEC50

Below, each entry is followed by its recorded pEC50 result.
smilesnotation=O=C(N[C@H]1CCCCC/C=C\[C@@H]2C[C@@]2(C(=O)NS(=O)(=O)C2CC2)NC(=O)[C@@H]2C[C@@H](OC(=O)N3Cc4cccc(F)c4C3)CN2C1=O)c1ccc(Cl)cc1 recordedmeasurement="> 7.00"
smilesnotation=CC(C)(C)ONC(=O)[C@@]12C[C@H]1/C=C\CCCCC[C@H](NC(=O)OC(C)(C)C)C(=O)N1C[C@H](OC(=O)N3Cc4cccc(Cl)c4C3)C[C@H]1C(=O)N2 recordedmeasurement="> 7.00"
smilesnotation=CC(C)(C)OC(=O)N[C@H]1CCCCC/C=C\[C@@H]2C[C@@]2(C(=O)NS(=O)(=O)c2c(Cl)cccc2Cl)NC(=O)[C@@H]2C[C@@H](OC(=O)N3Cc4cccc(F)c4C3)CN2C1=O recordedmeasurement="6.00 to 7.00"
smilesnotation=O=C1N[C@]2(C(=O)NS(=O)(=O)C3CC3)C[C@H]2/C=C\CCCCC[C@H](Nc2nc(-c3ccc(F)cc3)cs2)C(=O)N2C[C@H](Oc3nc(-c4ccccc4)nc4ccccc34)C[C@@H]12 recordedmeasurement="> 7.00"
smilesnotation=CC(C)CONC(=O)[C@@]12C[C@H]1/C=C\CCCCC[C@H](NC(=O)OC(C)(C)C)C(=O)N1C[C@H](OC(=O)N3Cc4cccc(F)c4C3)C[C@H]1C(=O)N2 recordedmeasurement="> 7.00"

According to the records, this molecule `O=C1N[C@]2(C(=O)NS(=O)(=O)C3CC3)C[C@H]2/C=C\CCCCC[C@H](Nc2nc(-c3ccc(F)cc3)cs2)C(=O)N2C[C@H](OC(=O)N3Cc4cccc(F)c4C3)C[C@@H]12` displays pEC50 of > 7.00

// sample `CC(C)(C)OC(=O)N[C@H]1CCCCC/C=C\[C@@H]2C[C@@]2(C(=O)NS(=O)(=O)c2ccc(F)cc2)NC(=O)[C@@H]2C[C@@H](OC(=O)N3Cc4cccc(F)c4C3)CN2C1=O` , its pEC50 was > 7.00

So for `Cc1ccc(S(=O)(=O)NC(=O)[C@@]23C[C@H]2/C=C\CCCCC[C@H](NC(=O)OC(C)(C)C)C(=O)N2C[C@H](OC(=O)N4Cc5cccc(F)c5C4)C[C@H]2C(=O)N3)c(C)c1` , the logged pEC50 turned out to be > 7.00
